Answer each item with its documented IC50 (µg/mL), neutralization of pseudovirus.
Assay target: HIV-1 Env of isolate MGRM-G-011 (subtype G), on pseudovirus (HIV-1)
Assay remarks: cell-based or functional assay

Given item PGT-125 (antibody, V domains shown) VH: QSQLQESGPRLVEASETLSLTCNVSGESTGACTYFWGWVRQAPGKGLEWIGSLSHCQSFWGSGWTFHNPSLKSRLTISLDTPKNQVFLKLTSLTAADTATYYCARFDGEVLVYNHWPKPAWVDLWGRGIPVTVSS VL: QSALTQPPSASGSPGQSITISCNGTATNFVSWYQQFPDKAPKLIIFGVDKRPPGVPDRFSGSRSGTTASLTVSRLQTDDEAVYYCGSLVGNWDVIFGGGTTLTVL , the value recorded as its IC50 (µg/mL), neutralization of pseudovirus is > 50 µg/mL

Given item PGT-127 (antibody, V domains shown) VH: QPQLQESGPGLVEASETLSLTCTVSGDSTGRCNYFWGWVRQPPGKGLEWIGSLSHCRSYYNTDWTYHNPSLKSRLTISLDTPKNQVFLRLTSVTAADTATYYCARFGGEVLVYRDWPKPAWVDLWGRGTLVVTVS VL: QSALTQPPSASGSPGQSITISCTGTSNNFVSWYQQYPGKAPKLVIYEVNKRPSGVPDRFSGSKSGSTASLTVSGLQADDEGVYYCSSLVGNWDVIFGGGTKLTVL , the value recorded as its IC50 (µg/mL), neutralization of pseudovirus is > 50 µg/mL

Given item PGT-137 (antibody, V domains shown) VH: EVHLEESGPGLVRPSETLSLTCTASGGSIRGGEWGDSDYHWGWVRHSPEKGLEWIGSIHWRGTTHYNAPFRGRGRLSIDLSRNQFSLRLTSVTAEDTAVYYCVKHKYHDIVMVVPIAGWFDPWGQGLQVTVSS VL: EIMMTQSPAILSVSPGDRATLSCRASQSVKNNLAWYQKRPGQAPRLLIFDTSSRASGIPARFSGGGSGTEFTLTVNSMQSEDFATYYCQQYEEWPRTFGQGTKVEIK , the value recorded as its IC50 (µg/mL), neutralization of pseudovirus is > 50 µg/mL
